src = patent US12338296B2

# study_system: eIF4E (Homo sapiens, UniProt P06730)
# Construct: made in house; Plasmid and cells were provided by Cyclacel Ltd., Dundee
# Sequence (P06730 whole entry): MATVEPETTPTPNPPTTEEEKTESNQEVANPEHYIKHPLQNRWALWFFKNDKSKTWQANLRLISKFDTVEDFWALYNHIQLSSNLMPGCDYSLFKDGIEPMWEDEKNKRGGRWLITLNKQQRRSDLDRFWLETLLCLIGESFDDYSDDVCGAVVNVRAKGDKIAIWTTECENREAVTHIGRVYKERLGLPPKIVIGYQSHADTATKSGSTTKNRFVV
# protocol_text: Surface plasmon resonance Kd determination on immobilized eIF4E (Biacore T100, CM5 chip)
# Assay type: binding
# protocol_conditions: KD relative to EE-2 (SPR)
Peptide text beside a SMILES is read from it.
measurement_name: Fold change
One number for each entry.

Sample answers from the record:
{"columns": ["compound", "study_system", "Fold change"],
 "data": [
  ["CSCC[C@@H]1NC(=O)[C@H](CCC(=O)O)NC(=O)[C@@H](N)CSSC[C@@H](C(N)=O)NC(=O)[C@H](CC(=O)O)NC(=O)[C@H](C)NC(=O)[C@H](Cc2ccccc2)NC(=O)[C@H](Cc2ccccc2)NC(=O)CNC1=O [EE-44] (HELM PEPTIDE1{C.E.M.G.F.F.A.D.C.[am]}$PEPTIDE1,PEPTIDE1,1:R3-9:R3$$$V2.0)", "eIF4E (Homo sapiens, UniProt P06730)", 0.4],
  ["CSCC[C@@H]1NC(=O)[C@H](CCC(=O)O)NC(=O)[C@@H](NC(=O)[C@H](C)N)CSSC[C@@H](C(=O)NCC(N)=O)NC(=O)[C@H](CC(=O)O)NC(=O)[C@H](CCCCN)NC(=O)[C@H](Cc2ccccc2)NC(=O)[C@H](Cc2ccccc2)NC(=O)CNC1=O [EE-39] (HELM PEPTIDE1{A.C.E.M.G.F.F.K.D.C.G.[am]}$PEPTIDE1,PEPTIDE1,2:R3-10:R3$$$V2.0)", "eIF4E (Homo sapiens, UniProt P06730)", 0.5],
  ["CSCC[C@@H]1NC(=O)[C@H](CCC(=O)O)NC(=O)[C@@H](NC(=O)[C@H](C)N)CSSC[C@@H](C(=O)NCC(N)=O)NC(=O)[C@H](CC(=O)O)NC(=O)[C@H](CC(C)C)NC(=O)[C@H](Cc2ccccc2)NC(=O)[C@H](Cc2ccccc2)NC(=O)CNC1=O [EE-41] (HELM PEPTIDE1{A.C.E.M.G.F.F.L.D.C.G.[am]}$PEPTIDE1,PEPTIDE1,2:R3-10:R3$$$V2.0)", "eIF4E (Homo sapiens, UniProt P06730)", 0.9]
]}

--- query ---
Q) Can you look up the measured Fold change of CSCC[C@@H]1NC(=O)[C@H](CCC(=O)O)NC(=O)[C@@H](NC(=O)[C@H](C)N)CSSC[C@@H](C(=O)NCC(N)=O)NC(=O)[C@H](CC(=O)O)NC(=O)CNC(=O)[C@H](Cc2ccccc2)NC(=O)[C@H](Cc2ccccc2)NC(=O)CNC1=O [EE-40] (HELM PEPTIDE1{A.C.E.M.G.F.F.G.D.C.G.[am]}$PEPTIDE1,PEPTIDE1,2:R3-10:R3$$$V2.0) for me?
A) 1.9
